# methodSummary: folding stability dG unfold from trypsin proteolysis; higher = more stable
Listed next: entries and their corresponding folding stability dG unfold.
Please reply with the bare figure in kcal/mol and do not write the unit itself.

# example entries with known answers
seqText: SEVVDTFSPPVTGSGEPRDFEIRLIKDENGNPVSVTMFDPVTGVEYPPDVSLEDLGVPPPVVEAFEAARRSS [r1_354_JUSTAS]
unitText: kcal/mol
valueObserved: -0.48
//
seqText: SAGGSAMTLEDLKDEFVVITLPDGTVVKAKVEEVDTKGPVLTILVGGKPILIPADAPVKIEIEPPKSAGGSA [r15_355_JUSTAS]
unitText: kcal/mol
valueObserved: 1.74
//
seqText: SAGGSAPSSGNVLEIKVEKLPDGTLVGTLTVKDPNSSNTTTIEITIPSSKTPEEAEAELKKIVEEASAGGSA [r15_181_JUSTAS]
unitText: kcal/mol
valueObserved: 2.11

Consider the record given below.
// query # return recorded folding stability dG unfold for entry SAGGSAGGPVTVVPVVTPADVPVLTTPGGAPARPASRPDLVRPVASTVTVTITPAPAAPTVTVLSAGGSAGG [r6_537_JUSTAS]
// result 0.857

###

The sequences listed here are annotated with their folding stability dG unfold.
# methodSummary: folding stability dG unfold from chymotrypsin proteolysis; higher = more stable
# value in kcal/mol; strip the unit string

Completed entries (count: 2):
seqText: SAGGSAGGSAGGMKIRVTHPTNKTEEIIPVSELKKIPGPYTIEPLGPDPELAEKIKKLLSAGGSAGGSAGGS [r10_419_JUSTAS]
unitText: kcal/mol
valueObserved: 0.553
--
seqText: SAGNVTIRISFYPRKDGWFFRIKVHFDGKPRELMIPPDDSAEDLADELEKKLGADVTDIEVEWMPLEDGSAG [r5_181_TrROS]
unitText: kcal/mol
valueObserved: 4.25

// query Please list folding stability dG unfold recorded for the sequence SAGGMNSMRLTVEFPSPEQREEKLRQIVHKHGFTIKPKEVEPNPNGRMTHTIEINMPPKVRDAFKDLSAGGS [r8_357_TrROS]
// result -0.152

// query Note folding stability dG unfold for the sequence shown: SAGGSAGGSIPPGEEVPLRIKIWNPDNGKPRNEIPITMWVGDAEEIAEEFASTFPGYRVEIDPSAGGSAGGS [r12_21_TrROS]
// result 0.717

// query Complete the entry with folding stability dG unfold for SAATSSTSISIPASTTSLEDVRATLAALGYPPERIVALEVVKVEPGSTKITVTLERPDGTRRTVTVTSASAG [r14_30_JUSTAS]
// result 2.39

###

Overview of reported folding stability dG unfold across a group of sequences:
# methodSummary: folding stability dG unfold from trypsin proteolysis; higher = more stable
Please give a number only; it is taken to be in kcal/mol.

seqText: GHRIKVNTVHTPSGTFSLTATVRYPDGTTVTYSFNLPSSPNDTFSVSVPESVPLTTVTTSTFQGDTETPTSS [r1_70_JUSTAS]
folding stability dG unfold / kcal/mol: 1.02

// query Quote folding stability dG unfold reported for SAGGSAAPLPPDETEVRVEYRYDPEKGVLVITTTTTRFTPEGGATPLETRPVVVEVTEEEKKKVELSAGGSA [r15_191_JUSTAS] please.
// result 1.25

// query Give folding stability dG unfold for the following sequence: SAGGSAGGYVEVTIMIPPDDLDEIKEIAEPFGFTSVETERVPDNPMVVVKIEVKIPKEDDKDNKSAGGSAGG [r6_273_TrROS]
// result 0.427

// query Given MEVKIKVEIVKVEEVEVKKKKDGKEEKFIRIEIKIEVEAKPGLSEEEIKKLAEELAKKLKELGLEVEVKKES [r1_305_TrROS_Hall] , respond with its folding stability dG unfold.
// result 0.993

// query Please give the documented folding stability dG unfold of SAGGSAGGSHRIIFRINSPGMPPRQAADRIADMLQEEHGLKIKGVDIWTYPNGSYWVTITIEPSAGGSAGGS [r12_781_TrROS]
// result 2.77
